target: N-type Ca2+ channel (Homo sapiens, UniProt Q00975); assay: Measurement of N-type Ca2+ channel blocking potencies in IMR-32 cells using the fluorescent Ca2+ indicator Indo-1; settings: K+-stimulated Ca2+ flux, 5 μM nitrendipine to block L-type channels
Sequence (Q00975 whole entry): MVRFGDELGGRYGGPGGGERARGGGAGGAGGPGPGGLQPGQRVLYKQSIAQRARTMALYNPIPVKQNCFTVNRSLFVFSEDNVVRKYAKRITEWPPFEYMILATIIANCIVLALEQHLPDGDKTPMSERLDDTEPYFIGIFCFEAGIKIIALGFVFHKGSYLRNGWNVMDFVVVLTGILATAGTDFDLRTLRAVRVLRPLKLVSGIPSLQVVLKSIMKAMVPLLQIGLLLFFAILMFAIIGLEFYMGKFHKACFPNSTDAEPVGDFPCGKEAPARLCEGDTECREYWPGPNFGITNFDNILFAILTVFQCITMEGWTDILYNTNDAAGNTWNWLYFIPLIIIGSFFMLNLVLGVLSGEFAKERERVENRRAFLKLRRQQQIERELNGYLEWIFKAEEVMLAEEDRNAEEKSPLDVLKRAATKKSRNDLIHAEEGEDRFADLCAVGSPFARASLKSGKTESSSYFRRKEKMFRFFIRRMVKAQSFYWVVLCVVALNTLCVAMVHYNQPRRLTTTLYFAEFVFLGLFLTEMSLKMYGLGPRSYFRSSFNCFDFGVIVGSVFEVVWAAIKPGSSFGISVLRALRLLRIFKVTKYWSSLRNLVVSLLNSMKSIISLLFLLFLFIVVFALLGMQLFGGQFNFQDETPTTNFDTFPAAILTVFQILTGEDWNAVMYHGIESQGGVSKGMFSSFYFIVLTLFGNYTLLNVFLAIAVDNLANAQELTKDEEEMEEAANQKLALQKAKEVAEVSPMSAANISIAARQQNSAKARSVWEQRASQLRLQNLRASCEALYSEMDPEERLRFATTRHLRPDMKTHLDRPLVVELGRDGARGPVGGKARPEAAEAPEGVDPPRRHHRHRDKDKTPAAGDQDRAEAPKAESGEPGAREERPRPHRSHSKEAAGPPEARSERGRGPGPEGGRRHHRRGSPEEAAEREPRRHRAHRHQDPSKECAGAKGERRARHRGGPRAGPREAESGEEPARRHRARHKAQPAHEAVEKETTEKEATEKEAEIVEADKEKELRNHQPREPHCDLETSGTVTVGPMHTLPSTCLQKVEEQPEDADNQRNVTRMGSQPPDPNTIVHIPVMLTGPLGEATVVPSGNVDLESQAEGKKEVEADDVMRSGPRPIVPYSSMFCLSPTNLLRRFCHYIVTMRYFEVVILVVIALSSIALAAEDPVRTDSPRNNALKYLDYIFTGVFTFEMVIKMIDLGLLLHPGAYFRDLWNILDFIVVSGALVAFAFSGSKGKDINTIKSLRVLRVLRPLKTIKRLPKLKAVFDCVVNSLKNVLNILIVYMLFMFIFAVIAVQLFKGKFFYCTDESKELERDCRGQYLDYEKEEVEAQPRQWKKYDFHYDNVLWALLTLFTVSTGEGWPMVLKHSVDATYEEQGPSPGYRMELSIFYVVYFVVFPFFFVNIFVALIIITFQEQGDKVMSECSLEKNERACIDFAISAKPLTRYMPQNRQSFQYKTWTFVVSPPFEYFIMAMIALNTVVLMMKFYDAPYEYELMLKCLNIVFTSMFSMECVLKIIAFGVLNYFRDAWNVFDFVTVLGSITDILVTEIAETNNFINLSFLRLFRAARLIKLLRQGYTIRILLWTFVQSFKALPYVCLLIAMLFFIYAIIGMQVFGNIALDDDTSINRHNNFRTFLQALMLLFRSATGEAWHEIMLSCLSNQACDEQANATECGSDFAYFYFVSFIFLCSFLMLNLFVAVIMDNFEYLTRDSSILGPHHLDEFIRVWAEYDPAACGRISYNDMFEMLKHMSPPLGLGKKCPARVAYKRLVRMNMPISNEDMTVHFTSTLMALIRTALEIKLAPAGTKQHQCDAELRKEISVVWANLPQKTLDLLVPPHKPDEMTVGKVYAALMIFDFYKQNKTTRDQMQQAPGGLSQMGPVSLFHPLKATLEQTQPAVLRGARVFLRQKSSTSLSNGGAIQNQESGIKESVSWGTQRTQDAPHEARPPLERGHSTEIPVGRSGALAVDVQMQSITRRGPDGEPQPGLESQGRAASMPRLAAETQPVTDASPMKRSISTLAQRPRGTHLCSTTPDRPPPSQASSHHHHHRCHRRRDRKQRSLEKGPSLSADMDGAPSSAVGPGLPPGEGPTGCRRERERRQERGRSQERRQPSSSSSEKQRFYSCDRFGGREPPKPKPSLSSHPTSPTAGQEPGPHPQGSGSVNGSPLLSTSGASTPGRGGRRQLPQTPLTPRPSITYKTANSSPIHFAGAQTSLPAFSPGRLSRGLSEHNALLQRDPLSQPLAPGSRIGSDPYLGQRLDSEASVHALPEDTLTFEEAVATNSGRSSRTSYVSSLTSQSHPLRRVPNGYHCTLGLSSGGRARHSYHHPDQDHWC
Sequence (P54289 25-956 partner limits assumed): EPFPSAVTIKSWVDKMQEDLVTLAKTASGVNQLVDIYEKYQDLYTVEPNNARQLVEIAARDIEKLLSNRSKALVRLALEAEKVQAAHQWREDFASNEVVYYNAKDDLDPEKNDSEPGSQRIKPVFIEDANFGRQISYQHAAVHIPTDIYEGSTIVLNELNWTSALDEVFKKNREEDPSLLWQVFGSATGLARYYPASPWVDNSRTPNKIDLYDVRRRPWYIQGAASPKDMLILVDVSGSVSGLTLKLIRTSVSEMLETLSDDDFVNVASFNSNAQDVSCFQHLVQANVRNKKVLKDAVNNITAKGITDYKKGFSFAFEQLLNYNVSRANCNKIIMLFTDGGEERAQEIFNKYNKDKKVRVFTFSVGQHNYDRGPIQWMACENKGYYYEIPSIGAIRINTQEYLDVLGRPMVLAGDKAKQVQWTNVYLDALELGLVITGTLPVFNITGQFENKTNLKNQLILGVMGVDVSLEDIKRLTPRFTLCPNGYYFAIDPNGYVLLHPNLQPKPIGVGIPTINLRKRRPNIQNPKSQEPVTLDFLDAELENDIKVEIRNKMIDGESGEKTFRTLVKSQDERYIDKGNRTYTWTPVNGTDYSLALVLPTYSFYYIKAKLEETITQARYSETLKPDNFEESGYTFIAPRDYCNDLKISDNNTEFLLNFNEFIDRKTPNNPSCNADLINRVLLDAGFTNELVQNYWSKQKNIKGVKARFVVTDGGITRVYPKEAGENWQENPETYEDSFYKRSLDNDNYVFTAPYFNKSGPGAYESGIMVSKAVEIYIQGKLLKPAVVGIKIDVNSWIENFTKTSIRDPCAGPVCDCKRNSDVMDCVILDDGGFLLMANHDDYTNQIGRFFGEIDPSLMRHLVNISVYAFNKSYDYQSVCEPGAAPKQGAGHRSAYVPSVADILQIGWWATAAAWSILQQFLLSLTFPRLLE
Sequence (P54289 957-1103 partner limits assumed): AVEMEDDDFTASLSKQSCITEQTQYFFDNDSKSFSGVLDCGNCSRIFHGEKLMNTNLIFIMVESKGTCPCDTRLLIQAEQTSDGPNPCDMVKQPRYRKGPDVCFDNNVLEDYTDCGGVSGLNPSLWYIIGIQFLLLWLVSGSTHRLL
Sequence (Q02641 whole entry partner): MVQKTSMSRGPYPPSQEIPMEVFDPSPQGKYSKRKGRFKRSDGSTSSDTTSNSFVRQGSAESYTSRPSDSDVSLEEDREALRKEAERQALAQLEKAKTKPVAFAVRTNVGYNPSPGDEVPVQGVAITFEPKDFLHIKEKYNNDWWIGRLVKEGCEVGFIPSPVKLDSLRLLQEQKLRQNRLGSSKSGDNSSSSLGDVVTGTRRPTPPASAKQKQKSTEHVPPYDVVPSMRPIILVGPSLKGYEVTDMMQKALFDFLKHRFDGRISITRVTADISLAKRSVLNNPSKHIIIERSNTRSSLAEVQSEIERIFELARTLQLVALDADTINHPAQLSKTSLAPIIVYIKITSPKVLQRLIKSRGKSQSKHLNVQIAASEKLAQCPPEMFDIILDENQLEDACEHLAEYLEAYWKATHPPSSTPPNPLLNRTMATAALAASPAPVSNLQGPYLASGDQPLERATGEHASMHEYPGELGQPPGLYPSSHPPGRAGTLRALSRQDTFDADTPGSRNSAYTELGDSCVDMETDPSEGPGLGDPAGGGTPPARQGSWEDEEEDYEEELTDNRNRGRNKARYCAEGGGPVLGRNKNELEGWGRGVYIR
readout kind: log10 of IC50 (log10 of the value in nM)
Note: values are log10 of IC50 expressed in nM.

Use the examples below as a reference point.
CC(C)=CCN(c1ccc(NC(=O)OCc2ccccc2)cc1)C1CCN(C(=O)[C@H](CC(C)C)NC(=O)N2CCCCCC2)CC1 : 2.23
CC(C)=CCN(CCCNC(=O)[C@H](CC(C)C)NC(=O)N1CCCCCC1)c1ccc(OCc2ccccc2)cc1 : 2.88
CC(C)=CCN(c1ccc(OCc2ccccc2)cc1)C1CCN(C(=O)[C@@H](N)CC(C)C)CC1 : 3.38

In: Which log10 of IC50 value is on record for CC(C)CC(NC(=O)N1CCCCCC1)C(=O)N1CCC(N(CCC(C)O)c2ccc(OCc3ccccc3)cc2)CC1 (centres unmarked) ?
Out: 3.66

In: Please give the result for CC(C)=CCN(c1ccc(OCc2ccccc2)cc1)C1CCN(C(=O)[C@H](CC(C)C)NCCC(C)C)CC1 too.
Out: 2.68
